Target: UniProtKB P33261
Sequence (P33261 whole entry): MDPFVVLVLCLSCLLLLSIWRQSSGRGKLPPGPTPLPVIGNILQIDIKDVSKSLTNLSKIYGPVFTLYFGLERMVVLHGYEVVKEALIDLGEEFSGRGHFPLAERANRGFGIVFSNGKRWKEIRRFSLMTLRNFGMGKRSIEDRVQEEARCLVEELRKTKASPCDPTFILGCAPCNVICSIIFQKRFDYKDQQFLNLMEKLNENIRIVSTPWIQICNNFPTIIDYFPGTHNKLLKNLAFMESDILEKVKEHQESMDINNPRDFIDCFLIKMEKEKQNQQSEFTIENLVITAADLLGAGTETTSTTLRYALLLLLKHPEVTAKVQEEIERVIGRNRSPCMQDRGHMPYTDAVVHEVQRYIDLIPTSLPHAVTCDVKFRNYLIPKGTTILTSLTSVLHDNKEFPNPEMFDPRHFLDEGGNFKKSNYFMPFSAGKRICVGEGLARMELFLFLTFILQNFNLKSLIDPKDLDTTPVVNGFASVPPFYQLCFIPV
VALUE_TYPE: IC50

Exam item: Provide UniProtKB P33261 IC50 reading for O=C(NNC(=O)c1sc2cc(Cl)ccc2c1Cl)c1ccc([N+](=O)[O-])o1 .
Marked response: > 50 µM

* * *

Target: Cytochrome P450 2D6 (Homo sapiens)
Sequence (P10635 whole entry): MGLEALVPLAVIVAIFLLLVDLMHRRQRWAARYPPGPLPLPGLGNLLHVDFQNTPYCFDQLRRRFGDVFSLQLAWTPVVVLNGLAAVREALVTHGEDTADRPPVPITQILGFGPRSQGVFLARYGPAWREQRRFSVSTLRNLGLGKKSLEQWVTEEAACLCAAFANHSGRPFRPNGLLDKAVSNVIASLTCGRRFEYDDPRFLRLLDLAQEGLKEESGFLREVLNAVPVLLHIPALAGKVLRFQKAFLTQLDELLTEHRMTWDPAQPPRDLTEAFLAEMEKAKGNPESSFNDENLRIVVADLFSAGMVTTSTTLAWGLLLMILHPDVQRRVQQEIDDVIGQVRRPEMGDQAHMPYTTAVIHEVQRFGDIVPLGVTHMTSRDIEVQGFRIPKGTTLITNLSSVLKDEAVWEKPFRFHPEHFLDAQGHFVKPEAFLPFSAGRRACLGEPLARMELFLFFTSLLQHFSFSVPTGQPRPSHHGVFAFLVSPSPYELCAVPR
VALUE_TYPE: IC50

Exam item: Item O=C(NNC(=O)c1sc2cc(Cl)ccc2c1Cl)c1ccc([N+](=O)[O-])o1 : provide IC50
Marked response: > 50 µM

* * *

Assay: Plasma protein binding in mouse at 5 uM measured after 5 hrs by LC-MS/MS analysis
Format: ADME, cell-free
Details: read-out: PPB
VALUE_TYPE: fraction unbound at 5 h, 5 µM

Exam item: Item O=C(NNC(=O)c1sc2cc(Cl)ccc2c1Cl)c1ccc([N+](=O)[O-])o1 : provide fraction unbound at 5 h, 5 µM
Marked response: 0.0001

* * *

Assay: Cytotoxicity against African green monkey Vero cells assessed as cell viability incubated for 48 hrs by MTT assay
Format: toxicity, cell-based
Settings: chlorocebus sabaeus
For each of the compounds below, state its CC50.
Numbers only, in µM.

Worked set:
# STRUCTURE_STRING, CC50 [µM]
records = [
    ("O=[N+]([O-])c1ccc(-c2nnc(-c3cc4ccccc4s3)o2)o1", 160),
    ("O=C(c1ccc([N+](=O)[O-])o1)N1CCN(C(=O)c2cc3ccccc3s2)CC1", 16),
    ("O=C(NCCNC(=O)c1cc2ccccc2s1)c1ccc([N+](=O)[O-])o1", 139),
    ("O=C(NNC(=O)c1cc2cc(Cl)cc(Cl)c2s1)c1ccc([N+](=O)[O-])o1", 124),
    ("O=C(NNC(=O)c1sc2cc(Cl)ccc2c1Cl)c1ccc(Cl)s1", 123),
    ("O=C(NNC(=O)c1csc2ccccc12)c1ccc([N+](=O)[O-])o1", 75),
]

// below: CC50 requested for another compound
Exam item: Item O=C(NNC(=O)c1cc2ccccc2o1)c1ccc([N+](=O)[O-])o1 : provide CC50
Marked response: 39

* * *

Assay: Cytotoxicity against African green monkey Vero cells assessed as cell viability incubated for 48 hrs by MTT assay
Type: toxicity, cell-based
Conditions: chlorocebus sabaeus
VALUE_TYPE: CC50

Worked set:
# STRUCTURE_STRING, MEAS_VALUE
data = [
    ("O=C(NNC(=O)c1cc2c(Cl)cc(Cl)cc2s1)c1ccc([N+](=O)[O-])o1", "> 124 µM"),
    ("O=C(NNC(=O)c1sc2cc(Cl)ccc2c1Cl)c1ccc([N+](=O)[O-])s1", "> 120 µM"),
]

// below: CC50 requested for another compound
Exam item: Item O=C(NNC(=O)c1sc2ccc(Cl)cc2c1Cl)c1ccc([N+](=O)[O-])o1 : provide CC50
Marked response: > 124 µM
